test-name: Photophysical measurements (emission, quantum yield, lifetime) in CH2Cl2
Assay type: physicochemical
measurement-conditions: CH2Cl2
measure: τ1 excited-state lifetime (ns)

{"compound": "CSc1ccc(-[n+]2ccn3[c]2[Ir-3]24([c]5ccccc5-c5cccc[n+]52)([c]2ccccc2-c2cccc[n+]24)[c]2n(cc[n+]2-c2ccc(SC)cc2)C3)cc1.F[P-](F)(F)(F)(F)F [Complex 4d]", "measure": "τ1 excited-state lifetime", "value-units": "ns", "recorded-value": 167}
{"compound": "CC(C)C[n+]1ccn2[c]1[Ir-3]13([c]4ccccc4-c4cccc[n+]41)([c]1ccccc1-c1cccc[n+]13)[c]1n(cc[n+]1CC(C)C)C2.F[P-](F)(F)(F)(F)F [Complex 4b]", "measure": "τ1 excited-state lifetime", "value-units": "ns", "recorded-value": 166}
{"compound": "F[P-](F)(F)(F)(F)F.c1ccc(C[n+]2ccn3[c]2[Ir-3]24([c]5ccccc5-c5cccc[n+]52)([c]2ccccc2-c2cccc[n+]24)[c]2n(cc[n+]2Cc2ccccc2)C3)cc1 [Complex 4c]", "measure": "τ1 excited-state lifetime", "value-units": "ns", "recorded-value": 180}
{"compound": "CC(C)[n+]1ccn2[c]1[Ir-3]13([c]4ccccc4-c4cccc[n+]41)([c]1ccccc1-c1cccc[n+]13)[c]1n(cc[n+]1C(C)C)C2.F[P-](F)(F)(F)(F)F [Complex 4a]", "measure": "τ1 excited-state lifetime", "value-units": "ns", "recorded-value": 191}
